Experiment: Blood plasma levels in human patients
Format: in vivo
Settings: plasma, oral, 5 mg/kg bw, monepantel as Zolvix 5 mg/kg bw daily, 24 h, individual patients, read-out: Blood plasma level of monepantel sulfone
measure: concentration at 24 h (ng/mL)

C[C@](C#N)(COc1cc(C#N)ccc1C(F)(F)F)NC(=O)c1ccc(S(=O)(=O)C(F)(F)F)cc1 ... 254

----------
Experiment: Blood plasma levels in human patients
Assay type: in vivo
Conditions: plasma, oral, 5 mg/kg bw, monepantel as Zolvix 5 mg/kg bw daily, 12 h, average of patients, read-out: Blood plasma level of monepantel sulfone, Average
measure: concentration at 12 h

C[C@](C#N)(COc1cc(C#N)ccc1C(F)(F)F)NC(=O)c1ccc(S(=O)(=O)C(F)(F)F)cc1 [MPLS, monepantel sulfone] ... 346 ng/mL
